Every entry's value here was drawn from patent US8476298B2.

Provide the recorded IC50 for the entries that follow.
- study_target: KDR (baculovirus expressed human KDR kinase domain D807-V1356) (Homo sapiens, UniProt P35968)
- Construct: human KDR kinase domain D807-V1356; host or cells: baculovirus expression
- Sequence (P35968 807-1356): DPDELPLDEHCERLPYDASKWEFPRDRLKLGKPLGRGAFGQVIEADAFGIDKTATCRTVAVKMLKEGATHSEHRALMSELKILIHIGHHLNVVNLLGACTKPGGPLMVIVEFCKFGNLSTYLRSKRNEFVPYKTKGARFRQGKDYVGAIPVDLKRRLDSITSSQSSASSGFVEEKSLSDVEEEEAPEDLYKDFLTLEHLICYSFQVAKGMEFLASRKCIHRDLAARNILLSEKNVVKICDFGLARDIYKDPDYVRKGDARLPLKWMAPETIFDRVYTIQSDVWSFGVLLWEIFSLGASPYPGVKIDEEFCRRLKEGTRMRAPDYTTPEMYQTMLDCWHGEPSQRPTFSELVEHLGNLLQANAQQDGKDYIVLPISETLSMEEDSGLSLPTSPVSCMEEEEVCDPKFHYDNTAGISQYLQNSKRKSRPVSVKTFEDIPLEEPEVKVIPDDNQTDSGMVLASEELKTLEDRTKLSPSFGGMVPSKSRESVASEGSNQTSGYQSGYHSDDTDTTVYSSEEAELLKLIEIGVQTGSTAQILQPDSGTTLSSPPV
- measurement_notes: biochemical

Task: Identify the reported IC50 for the following entry. COc1cc2nccc(Oc3ccc(N4CC(Cc5ccccc5)NC4=O)cc3)c2cc1OC (centres unmarked)
Result: 500 to 5000 nM

Task: Identify the reported IC50 for the following entry. COc1cc2c(Oc3ccc(NC(=O)C4(C(=O)Nc5ccc(F)cc5)[C@H](C)[C@H]4C)cc3F)ccnc2cc1OCCCN1CCOCC1 (some centres unmarked)
Result: < 50 nM

Task: Identify the reported IC50 for the following entry. `CCN(CC)CCOc1cc2c(Oc3ccc(NC(=O)C4(C(=O)Nc5ccc(F)cc5)CC4)cc3F)ccnc2cc1OC`
Result: < 50 nM

Task: Identify the reported IC50 for the following entry. `COc1cc2nccc(Oc3ccc(N4CCN(Cc5ccccc5)CC4=O)cc3)c2cc1OC`
Result: 500 to 5000 nM

Task: Identify the reported IC50 for the following entry. COc1cc2c(Oc3ccc(NC(=O)C(=O)NCCc4ccccc4)cc3F)ncnc2cc1OCC1C[C@H]2CNC[C@H]2C1 (some centres unmarked)
Result: < 50 nM

* * *

- study_target: c-Met (baculovirus expressed human c-Met kinase domain P948-S1343) (Homo sapiens, UniProt P08581)
- Construct: human c-Met kinase domain P948-S1343; host or cells: baculovirus expression
- Sequence (P08581 1011-1343 limits assumed): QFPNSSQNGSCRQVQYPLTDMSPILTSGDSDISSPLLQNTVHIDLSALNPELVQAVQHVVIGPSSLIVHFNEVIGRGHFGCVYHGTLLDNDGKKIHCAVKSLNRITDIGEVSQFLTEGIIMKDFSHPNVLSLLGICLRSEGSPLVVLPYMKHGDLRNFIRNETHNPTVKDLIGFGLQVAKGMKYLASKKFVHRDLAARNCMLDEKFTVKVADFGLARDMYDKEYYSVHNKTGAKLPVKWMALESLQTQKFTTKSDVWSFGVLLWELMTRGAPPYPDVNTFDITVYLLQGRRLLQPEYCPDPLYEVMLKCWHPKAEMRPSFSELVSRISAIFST
- measurement_notes: c-Met Luciferase-Coupled Chemiluminescent Kinase assay (LCCA);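 also: kinase activity read as percent ATP left after reaction, by luciferase-luciferin chemiluminescence, with 1 µM ATP and 1 µM poly-EY substrate, 2 h at ambient temperature, 10-point dose-response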
- Format: biochemical
outcome_measure: IC50

Task: Identify the reported IC50 for the following entry. COc1cc2c(Oc3ccc(NC(=O)C(=O)N4CCCC4)cc3F)ccnc2cc1OCC1CCNCC1 [Example 299]
Result: < 50 nM

Task: Identify the reported IC50 for the following entry. COc1cc2ncnc(Oc3ccc(NC(=O)C4(C(=O)Nc5ccc(F)cc5)CC4)cc3F)c2cc1OC [Example 311]
Result: < 50 nM

Task: Identify the reported IC50 for the following entry. COc1cc2nc(SC)cc(Oc3ccc(NC(=O)C4(C(=O)Nc5ccc(F)cc5)CC4)cc3F)c2cc1OC [Example 338]
Result: 500 to 5000 nM

Task: Identify the reported IC50 for the following entry. COc1cc2nccc(Oc3ccc(NC(=O)/C(C)=N/OCc4ccccc4)cc3)c2cc1OC [Example 110]
Result: 50 to 500 nM

Task: Identify the reported IC50 for the following entry. COc1cc2c(Oc3ccc(NC(=O)[C@]4(C(=O)Nc5ccc(F)cc5)C[C@H]4C)cc3F)ccnc2cc1OCCCN1CCN(C)CC1 [Example 355]
Result: < 50 nM

Task: Identify the reported IC50 for the following entry. COc1cc2nccc(Oc3ccc(NC(=O)[C@@H]4CCCN4Cc4ccccc4)cc3)c2cc1OC [Example 111]
Result: 500 to 5000 nM

Task: Identify the reported IC50 for the following entry. CCN(CC)CCCOc1cc2nccc(Oc3ccc(NC(=O)C4(C(=O)Nc5ccc(F)cc5)[C@H](C)[C@H]4C)cc3F)c2cc1OC (stereo partly shown) [Example 371]
Result: < 50 nM

* * *

- study_target: Flt-3 (baculovirus expressed human Flt-3 kinase domain R571-S993) (Homo sapiens, UniProt P36888)
- Construct: human Flt-3 kinase domain R571-S993; host or cells: baculovirus expression
- Sequence (P36888 571-993): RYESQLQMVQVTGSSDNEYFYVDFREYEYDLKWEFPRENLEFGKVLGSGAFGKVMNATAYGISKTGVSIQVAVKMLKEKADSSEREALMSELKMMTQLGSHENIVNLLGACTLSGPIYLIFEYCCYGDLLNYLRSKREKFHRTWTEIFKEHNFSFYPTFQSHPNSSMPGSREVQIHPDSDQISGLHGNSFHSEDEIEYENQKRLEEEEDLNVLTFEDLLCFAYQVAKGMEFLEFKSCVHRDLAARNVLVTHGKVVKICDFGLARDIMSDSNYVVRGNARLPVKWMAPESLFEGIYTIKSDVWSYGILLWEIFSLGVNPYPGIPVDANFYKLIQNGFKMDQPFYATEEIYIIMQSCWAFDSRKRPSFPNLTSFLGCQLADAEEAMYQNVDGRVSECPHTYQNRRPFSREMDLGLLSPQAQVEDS
- measurement_notes: biochemical
- condition: read-out: flt3 IC50
pIC50: −log10 of the molar value.
outcome_measure: pIC50

Task: Identify the reported pIC50 for the following entry. `COc1cc2c(Oc3ccc(NC(=O)[C@@]4(C(=O)Nc5ccc(F)cc5)[C@H](C)[C@@H]4C)cc3F)ccnc2cc1OCCCN1CCOCC1`
Result: 6.30 to 7.30

Task: Identify the reported pIC50 for the following entry. `COc1cc2c(Oc3ccc(NC(=O)C4(C(=O)Nc5ccc(F)cc5)CCC4)cc3F)ncnc2cc1OCCCN1CCN(C)CC1`
Result: 6.30 to 7.30

Task: Identify the reported pIC50 for the following entry. `COc1cc2nccc(Oc3ccc(NC(=O)C4(C(=O)Nc5ccc(F)cc5)CC4)cc3F)c2cc1O`
Result: > 7.30

Task: Identify the reported pIC50 for the following entry. `COc1cc2c(Oc3ccc(NC(=O)C4(C(=O)Nc5ccc(F)cc5)CC4)cc3F)ncnc2cc1OCC1CCN(C)CC1`
Result: > 7.30

Task: Identify the reported pIC50 for the following entry. `COc1cc2c(Oc3ccc(NC(=O)C(=O)N4CCCC4)cc3F)ccnc2cc1OCC1CCNCC1`
Result: 6.30 to 7.30

Task: Identify the reported pIC50 for the following entry. COc1cc2c(Oc3ccc(NC(=O)C4(C(=O)Nc5ccc(F)cc5)CC4(C)C)cc3F)ccnc2cc1OCCCN1CCOCC1 (stereo not shown)
Result: 6.30 to 7.30

Task: Identify the reported pIC50 for the following entry. `COc1cc2nccc(Oc3ncc(NC(=O)C4(C(=O)Nc5ccccc5)CC4)cc3Cl)c2cc1OC`
Result: > 7.30

* * *

- study_target: KDR (baculovirus expressed human KDR kinase domain D807-V1356) (Homo sapiens, UniProt P35968);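 also: Luciferase-coupled chemiluminescent kinase assay, activity read as percent ATP left after 4 h reaction at ambient temperature, ATP near KM, 10-point dose-response in 384-well plates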
- Construct: human KDR kinase domain D807-V1356; host or cells: baculovirus expression
- measurement_notes: biochemical
pIC50: −log10 of the molar value.
outcome_measure: pIC50

Task: Identify the reported pIC50 for the following entry. COc1cc2c(Oc3ccc(NC(=O)C(=O)NC(C)C)cc3F)ccnc2cc1OCC1CCNCC1 [Example 294]
Result: 6.30 to 7.30

Task: Identify the reported pIC50 for the following entry. COc1cc2ncnc(Oc3ccc(NC(=O)C4(C(=O)Nc5ccc(F)cc5)CC4)cc3F)c2cc1OCC1CCN(C)CC1 [Example 325]
Result: > 7.30

Task: Identify the reported pIC50 for the following entry. COc1cc2c(Oc3ccc(NC(=O)C(=O)NC(C)c4ccc(F)cc4)cc3F)ccnc2cc1OCC1CCNCC1 (stereo not shown) [Example 283]
Result: > 7.30

Task: Identify the reported pIC50 for the following entry. COc1cc2nccc(Oc3ccc(N4CC(Cc5ccccc5)N(S(=O)(=O)c5ccc(C)cc5)C4=O)cc3)c2cc1OC (stereo not shown) [Example 112]
Result: 5.30 to 6.30

Task: Identify the reported pIC50 for the following entry. COc1cc2nccc(Oc3ccc(NC(=O)C4(C(=O)Nc5ccc(F)cc5)CC4)cc3F)c2cc1O [Example 330]
Result: > 7.30

Task: Identify the reported pIC50 for the following entry. CCN(CC)CCCOc1cc2ncnc(Oc3ccc(NC(=O)C4(C(=O)Nc5ccc(F)cc5)CCC4)cc3F)c2cc1OC [Example 380]
Result: > 7.30

Task: Identify the reported pIC50 for the following entry. COc1cc2c(Oc3ccc(NC(=O)C4(C(=O)Nc5ccc(F)cc5)CC4)cc3F)ccnc2cc1OCC1CCN(C)CC1 [Example 334]
Result: > 7.30

* * *

- study_target: Flt-3 (baculovirus expressed human Flt-3 kinase domain R571-S993) (Homo sapiens, UniProt P36888);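 also: Luciferase-coupled chemiluminescent kinase assay, activity read as percent ATP left after a 3 h reaction at room temperature, ATP near KM, 10-point dose-response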
- Construct: human Flt-3 kinase domain R571-S993; host or cells: baculovirus expression
- measurement_notes: biochemical
- condition: read-out: flt3 IC50
Provide the recorded IC50 for the entries that follow.

Task: Identify the reported IC50 for the following entry. `CCN(CC)CCOc1cc2nccc(Oc3ccc(NC(=O)[C@]4(C(=O)Nc5ccc(F)cc5)C[C@H]4C)cc3F)c2cc1OC`
Result: < 50 nM

Task: Identify the reported IC50 for the following entry. `O=C(Nc1ccc(F)cc1)C1(C(=O)Nc2ccc(Oc3ccnc4cc(Cl)ccc34)c(F)c2)CC1`
Result: 500 to 5000 nM

Task: Identify the reported IC50 for the following entry. `COc1cc2c(Oc3ccc(NC(=O)[C@]4(C(=O)Nc5ccc(F)cc5)C[C@H]4C)cc3F)ncnc2cc1OCCCN1CCN(C)CC1`
Result: < 50 nM

Task: Identify the reported IC50 for the following entry. COc1cc2c(Oc3ccc(NC(=O)C4(C(=O)Nc5ccc(F)cc5)[C@H](C)[C@H]4C)cc3F)ncnc2cc1OCCCN1CCOCC1 (some centres unmarked)
Result: 500 to 5000 nM

Task: Identify the reported IC50 for the following entry. `COc1cc2c(Oc3ccc(NC(=O)C4(C(=O)Nc5ccc(F)cc5)CC4)cc3F)ccnc2cc1OCCCN1CCNCC1`
Result: < 50 nM
